Recorded values, source paper PMC7721647.

STUDY_TARGET: T1, DDX21Fl (human, UniProt Q9NR30 1-783)
T1 sequence: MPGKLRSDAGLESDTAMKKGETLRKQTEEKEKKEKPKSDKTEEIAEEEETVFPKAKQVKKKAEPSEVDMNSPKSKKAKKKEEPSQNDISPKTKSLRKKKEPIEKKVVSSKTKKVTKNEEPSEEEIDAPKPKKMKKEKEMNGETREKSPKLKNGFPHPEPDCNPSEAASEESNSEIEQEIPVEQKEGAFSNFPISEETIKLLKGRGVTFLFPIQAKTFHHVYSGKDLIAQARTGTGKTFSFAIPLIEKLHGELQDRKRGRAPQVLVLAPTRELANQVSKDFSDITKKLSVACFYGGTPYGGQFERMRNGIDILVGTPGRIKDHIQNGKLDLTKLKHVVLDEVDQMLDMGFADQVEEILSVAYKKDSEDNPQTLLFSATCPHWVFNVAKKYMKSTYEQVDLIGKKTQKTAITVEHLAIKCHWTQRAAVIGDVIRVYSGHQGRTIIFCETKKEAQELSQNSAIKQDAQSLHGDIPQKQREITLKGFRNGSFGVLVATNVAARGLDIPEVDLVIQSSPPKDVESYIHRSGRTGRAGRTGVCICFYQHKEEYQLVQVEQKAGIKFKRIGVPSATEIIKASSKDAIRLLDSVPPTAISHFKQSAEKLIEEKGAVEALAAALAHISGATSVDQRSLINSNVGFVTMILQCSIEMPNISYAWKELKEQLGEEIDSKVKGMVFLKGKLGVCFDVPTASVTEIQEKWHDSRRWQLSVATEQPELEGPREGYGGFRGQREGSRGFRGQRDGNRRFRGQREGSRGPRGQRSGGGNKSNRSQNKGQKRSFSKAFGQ
ASSAY: fluorescence polarization; no ATP; FP: 50 mM Tris pH 7.5, 50 mM KCl, 5 mM MgCl2, no ATP; Hill-slope fit; temperature not given in the material
MEASUREMENT_CONDITIONS: protein: recombinant; tags: N-terminal Trx-His6, cut with thrombin; chain copies: 2; label: 5'-FAM; single strand
READOUT_KIND: Kd (nM)

| BINDER | UNITS_TEXT | READOUT_VALUE |
| --- | --- | --- |
| GUUUCGGAUCGACGC (ssRNA) [15-mer ssRNA] | nM | 30.7 |
